- Tested on: HuCD100 (cell surface) (human, UniProt Q92854)
- Sequence (Q92854 22-734): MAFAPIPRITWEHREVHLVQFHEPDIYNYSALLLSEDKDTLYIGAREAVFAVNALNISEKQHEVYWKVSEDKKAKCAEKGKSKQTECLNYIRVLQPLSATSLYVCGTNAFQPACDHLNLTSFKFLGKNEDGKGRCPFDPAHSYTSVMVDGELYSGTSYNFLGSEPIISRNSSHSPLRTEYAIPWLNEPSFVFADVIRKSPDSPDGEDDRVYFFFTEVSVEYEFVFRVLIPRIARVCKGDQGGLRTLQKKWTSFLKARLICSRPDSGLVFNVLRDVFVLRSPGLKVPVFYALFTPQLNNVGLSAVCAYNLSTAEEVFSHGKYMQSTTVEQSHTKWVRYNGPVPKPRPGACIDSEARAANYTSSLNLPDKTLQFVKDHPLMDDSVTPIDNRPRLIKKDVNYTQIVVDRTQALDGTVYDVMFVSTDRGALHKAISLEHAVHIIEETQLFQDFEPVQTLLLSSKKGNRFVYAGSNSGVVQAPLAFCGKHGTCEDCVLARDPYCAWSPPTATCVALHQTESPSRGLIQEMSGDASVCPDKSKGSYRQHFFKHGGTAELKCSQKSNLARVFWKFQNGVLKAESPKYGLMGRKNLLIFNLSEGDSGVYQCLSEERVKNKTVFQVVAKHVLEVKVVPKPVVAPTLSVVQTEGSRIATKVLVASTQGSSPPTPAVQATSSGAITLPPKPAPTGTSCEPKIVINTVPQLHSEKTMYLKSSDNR
- Assay overview: FACS, HEK293
Examples of binders with documented EC50 follow.
Lab book: enter the figure in µg/mL, no units written.

Below, each entry is followed by its recorded EC50 result.
H74 (antibody, V domains shown) VH: QVQLQQWGAGLLKPSETLSLTCAVYGGSFSGYYWSWIRQPPGKGLEWIGEINHSGSTNYNPSLKSRVTISVDTSKNQFSLKLSSVTAADTAVYYCAGTRWLQFPLNYWGQGTLVTVSS VL: SYVLTQPPSVSVSPGQTASITCSGDKLGDKYAYWYQQKPGQSPVLVLYQDAKRPSGIPERFSGSNSGNTATLTISGTQAMDEADYYCQAWDSSTAGYVFGTGTKVTVL	0.0274
H5 (antibody, V domains shown) VH: QLQLQESGPGLVKPPGTLSLTCAVSGGSISSSNWWSWVRQPPGKGLEWIGEIYHSGSTNYNPSLKSRVTISVDTSKNQFSLKLSSVTAADTAVYYCAVYDFWSGSGLDYWGQGTLVTVSS VL: SYVLTQPPSVSVSPGQTASITCSGDKLGDKFASWYQQKPGQSPVLVIYQDRKRPSRIPERFSGSNSGNTATLTITGTQTIDEADYYCQAWDSGTVIFGGGTKLTVL	0.0288

Now for a further binder.
So what's the measured EC50 for this one? A15 (antibody, V domains shown) VH: EVQLLESGGGLIQPGGSLRLSCAASGFTVSSNYMSWVRQAPGKGLEWVSVIYSGGSTYYADSVKGRFTISRDNSKNTLYLQMNSLRAEDTAVYYCAREVEGGMDVWGQGTTVTVSS VL: SYVLTQPPSVSVSPGQTASIICSGDKLGDKYVYWYQQKSGQSPVLVIYQDRKRPSGIPERFSGSNSGNTASLAISGLQSEDEADYYCAAWDDSLNGWVFGGGTKLTVL
0.0269

Entry source: patent US20260347464
